- experiment-notes: Half life in rat at 10 mg/kg, iv and 10 mg/kg, po
- Format: ADME, organism-based
- condition-summary: in vivo
reported-endpoint: half-life (min)
Provide the reading as a plain figure in min.

Could you please provide reported half-life for `O=C([O-])CCc1ccc(Cn2cccn2)cc1OCCc1ccc2ccccc2c1.[Na+]` ? Thanks!
176

* * *

- system-name: UniProt P32240
- Sequence (P32240 whole entry): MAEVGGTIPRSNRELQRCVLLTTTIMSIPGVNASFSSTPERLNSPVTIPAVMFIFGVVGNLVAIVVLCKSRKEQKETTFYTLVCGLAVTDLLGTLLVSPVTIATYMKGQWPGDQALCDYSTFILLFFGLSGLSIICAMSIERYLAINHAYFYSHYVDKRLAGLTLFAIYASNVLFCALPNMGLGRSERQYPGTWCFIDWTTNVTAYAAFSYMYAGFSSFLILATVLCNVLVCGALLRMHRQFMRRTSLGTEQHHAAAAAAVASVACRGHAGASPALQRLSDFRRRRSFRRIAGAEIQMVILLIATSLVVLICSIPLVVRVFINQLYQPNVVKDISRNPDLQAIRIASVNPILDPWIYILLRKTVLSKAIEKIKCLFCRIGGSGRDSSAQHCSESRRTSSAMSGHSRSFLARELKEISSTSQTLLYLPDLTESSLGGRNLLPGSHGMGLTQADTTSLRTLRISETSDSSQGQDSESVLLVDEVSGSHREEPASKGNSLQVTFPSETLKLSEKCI
- experiment-notes: Displacement of [3H]PGE2 from mouse EP4 receptor expressed in CHO cells by liquid scintillation counting
- Type: cell-based
Listing of recorded Ki by entry.
Provide the reading as a plain figure in µM.

O=C(O)/C=C/c1ccc(COc2ccccc2)cc1OCCc1ccc2ccccc2c1
2.6

Let us examine a further case.
Could you please provide reported Ki for `O=C(O)/C=C/c1ccc(Cc2cccs2)cc1OCCc1ccc2ccccc2c1` ? Thanks!
2.2

* * *

- experiment-notes: Volume of distribution at steady state in rat at 10 mg/kg, iv and 10 mg/kg, po
- Format: ADME, organism-based
- condition-summary: in vivo, read-out: Vdss
reported-endpoint: Vd (L/kg)
Provide the reading as a plain figure in L/kg.

Could you please provide reported Vd for `O=C([O-])CCc1ccc(Cn2cccn2)cc1OCCc1ccc2ccccc2c1.[Na+]` ? Thanks!
0.538

* * *

- system-name: Cytochrome P450 1A2 (Homo sapiens, UniProt P05177)
- Sequence (P05177 whole entry): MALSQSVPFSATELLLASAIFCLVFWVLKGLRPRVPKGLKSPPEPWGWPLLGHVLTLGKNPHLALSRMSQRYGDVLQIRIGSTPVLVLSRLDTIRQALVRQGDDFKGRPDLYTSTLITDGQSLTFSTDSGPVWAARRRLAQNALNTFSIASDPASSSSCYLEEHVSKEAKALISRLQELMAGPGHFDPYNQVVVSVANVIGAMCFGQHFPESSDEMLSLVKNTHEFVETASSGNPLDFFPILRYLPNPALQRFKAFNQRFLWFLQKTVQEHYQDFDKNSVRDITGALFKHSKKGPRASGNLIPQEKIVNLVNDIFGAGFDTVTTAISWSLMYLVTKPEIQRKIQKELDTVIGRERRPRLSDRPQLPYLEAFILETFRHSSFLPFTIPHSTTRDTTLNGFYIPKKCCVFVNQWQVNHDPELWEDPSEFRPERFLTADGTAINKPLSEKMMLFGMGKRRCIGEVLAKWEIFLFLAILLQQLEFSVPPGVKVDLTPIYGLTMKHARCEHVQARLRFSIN
reported-endpoint: IC50

Could you please provide reported IC50 for `O=C(O)/C=C/c1ccc(Cn2cccn2)cc1OCCc1ccc2ccccc2c1` ? Thanks!
> 30 µM

* * *

// Prostaglandin E2 receptor EP1 subtype (Mus musculus, UniProt P35375) Ki records

Could you please provide reported Ki for `O=C(O)/C=C/c1ccc(Cc2cccs2)cc1OCCc1ccc2ccccc2c1` ? Thanks!
> 10 µM

Could you please provide reported Ki for COc1ccc(/C=C/C(=O)O)c(OCCC2(C)CCc3c(C)c(O)c(C)c(C)c3O2)c1 (stereo not given) ? Thanks!
> 10 µM

Could you please provide reported Ki for `O=C(O)/C=C/c1ccc(Cn2ccnc2)cc1OCCc1ccc2ccccc2c1` ? Thanks!
> 10 µM

Could you please provide reported Ki for `O=C(O)/C=C/c1ccc(Cn2ccnc2)cc1OCCc1cc2ccccc2o1` ? Thanks!
> 10 µM

Could you please provide reported Ki for `O=C(O)/C=C/c1ccc(Cn2cccn2)cc1OCCc1ccc2ccccc2c1` ? Thanks!
2.9 µM

* * *

// Prostaglandin E2 receptor EP3 subtype (Mus musculus, UniProt P30557) Ki records
Provide the reading as a plain figure in nM.

Past entries and their recorded results:
O=C(O)/C=C/c1ccc(OCc2ccccc2)cc1OCCc1ccc2ccccc2c1
850
O=C(O)CCCc1ccc(Cn2cccn2)cc1OCCc1ccc2ccccc2c1
39
O=C(O)/C=C/c1ccc(COc2ccccc2)cc1OCCc1ccc2ccccc2c1
130
O=C(O)/C=C/c1ccc(Cn2ccnc2)cc1OCCCOc1ccccc1
280
O=C(O)COCc1ccc(Cn2cccn2)cc1OCCc1ccc2ccccc2c1
210

Let us examine a further case.
# assay system Prostaglandin E2 receptor EP3 subtype (Mus musculus, UniProt P30557): give Ki of `O=C(O)CCc1ccc(Cn2cccn2)cc1OCCc1ccc2ccccc2c1`
12

* * *

- system-name: Prostaglandin E2 receptor EP3 subtype (Mus musculus, UniProt P30557)
- Sequence (P30557 whole entry): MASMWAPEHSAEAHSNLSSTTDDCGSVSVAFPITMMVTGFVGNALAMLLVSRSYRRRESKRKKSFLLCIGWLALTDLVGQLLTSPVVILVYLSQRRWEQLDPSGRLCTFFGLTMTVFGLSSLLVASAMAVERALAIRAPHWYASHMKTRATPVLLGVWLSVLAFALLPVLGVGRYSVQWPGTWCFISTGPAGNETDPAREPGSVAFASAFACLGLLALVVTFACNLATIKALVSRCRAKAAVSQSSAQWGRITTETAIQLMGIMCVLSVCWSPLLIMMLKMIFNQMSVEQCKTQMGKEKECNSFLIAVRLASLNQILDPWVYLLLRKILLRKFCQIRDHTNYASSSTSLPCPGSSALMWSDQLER
- experiment-notes: Antagonist activity at mouse EP3alpha receptor expressed in CHo cells assessed as inhibition of PGE2-stimulated intracellular calcium concentration
Listing of recorded IC50 by entry.

O=C(O)/C=C/c1ccc(Cn2ccnc2)cc1OCCc1cc2ccccc2o1
330 nM

Could you please provide reported IC50 for `O=C(O)/C=C/c1ccc(Cn2ccnc2)cc1OCCCOc1ccccc1` ? Thanks!
3000 nM

Could you please provide reported IC50 for `O=C(O)CCc1ccc(Cn2cccn2)cc1OCCc1ccc2ccccc2c1` ? Thanks!
22 nM

Could you please provide reported IC50 for `O=C(O)/C=C/c1ccc(Cc2ccccc2)cc1OCCc1ccc2ccccc2c1` ? Thanks!
400 nM

* * *

// Prostaglandin E2 receptor EP2 subtype (Mus musculus) Ki records
Provide the reading as a plain figure in µM.

Past entries and their recorded results:
O=C(O)/C=C/c1ccc(CN2CCCC2=O)cc1OCCc1ccc2ccccc2c1
5.9
O=C(O)/C=C/c1ccc(Cc2cccs2)cc1OCCc1ccc2ccccc2c1
2.1

# assay system Prostaglandin E2 receptor EP2 subtype (Mus musculus): give Ki of Cc1ccc(/C=C/C(=O)O)c(OCCC2(C)CCc3c(C)c(O)c(C)c(C)c3O2)c1 (stereo not given)
5.7

* * *

- experiment-notes: Total clearance in rat at 10 mg/kg, iv and 10 mg/kg, po
- Format: ADME, organism-based
- condition-summary: in vivo
reported-endpoint: clearance (L/h/kg)
Provide the reading as a plain figure in L/h/kg.

Could you please provide reported clearance for `O=C([O-])CCc1ccc(Cn2cccn2)cc1OCCc1ccc2ccccc2c1.[Na+]` ? Thanks!
0.166

* * *

- system-name: Prostaglandin E2 receptor EP3 subtype (Mus musculus)
- Sequence (P30557 whole entry): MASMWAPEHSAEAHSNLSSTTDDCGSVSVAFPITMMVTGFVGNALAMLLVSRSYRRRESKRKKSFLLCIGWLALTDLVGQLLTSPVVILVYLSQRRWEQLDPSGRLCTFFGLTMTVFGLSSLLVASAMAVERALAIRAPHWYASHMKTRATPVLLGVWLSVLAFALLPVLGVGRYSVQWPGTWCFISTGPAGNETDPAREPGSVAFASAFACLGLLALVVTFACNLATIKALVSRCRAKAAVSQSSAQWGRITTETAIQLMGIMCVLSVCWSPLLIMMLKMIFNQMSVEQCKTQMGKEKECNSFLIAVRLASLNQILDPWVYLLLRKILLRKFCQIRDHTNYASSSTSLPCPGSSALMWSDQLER
- experiment-notes: Antagonist activity at mouse EP3alpha receptor expressed in CHo cells assessed as inhibition of PGE2-stimulated intracellular calcium concentration
reported-endpoint: log10 of IC50 (log10 of the value in nM)
The common logarithm of IC50 in nM is what is listed.

Past entries and their recorded results:
O=C(O)/C=C/c1ccc(Cn2ccnc2)cc1OCCCCOc1ccccc1
3.54
O=C(O)/C=C/c1ccc(Cc2cccs2)cc1OCCc1ccc2ccccc2c1
2.18
O=C(O)/C=C/c1ccc(Cn2ccnc2)cc1OCCc1ccc2ccccc2c1
1.70
O=C(O)COCc1ccc(Cn2cccn2)cc1OCCc1ccc2ccccc2c1
2.73

Let us examine a further case.
Could you please provide reported log10 of IC50 for Cc1c(C)c2c(c(C)c1O)CCC(C)(CCOc1ccccc1/C=C/C(=O)O)O2 (stereo not given) ? Thanks!
3.68

* * *

- system-name: Cytochrome P450 3A4 (Homo sapiens, UniProt P08684)
- Sequence (P08684 whole entry): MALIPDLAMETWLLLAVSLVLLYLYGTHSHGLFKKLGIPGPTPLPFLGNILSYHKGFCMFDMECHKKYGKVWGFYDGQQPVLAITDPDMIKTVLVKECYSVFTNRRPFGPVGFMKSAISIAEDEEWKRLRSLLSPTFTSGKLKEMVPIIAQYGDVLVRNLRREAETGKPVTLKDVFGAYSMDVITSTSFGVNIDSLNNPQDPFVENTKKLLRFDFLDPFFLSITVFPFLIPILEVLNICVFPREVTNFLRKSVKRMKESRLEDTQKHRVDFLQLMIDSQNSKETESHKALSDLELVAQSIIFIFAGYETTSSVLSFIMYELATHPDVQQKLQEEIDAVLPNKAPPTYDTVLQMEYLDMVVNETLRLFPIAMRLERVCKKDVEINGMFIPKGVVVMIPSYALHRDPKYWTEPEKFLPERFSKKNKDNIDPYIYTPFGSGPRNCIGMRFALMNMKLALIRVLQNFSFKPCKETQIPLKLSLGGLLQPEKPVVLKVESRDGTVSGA
reported-endpoint: IC50

# assay system Cytochrome P450 3A4 (Homo sapiens, UniProt P08684): give IC50 of `O=C(O)/C=C/c1ccc(Cn2cccn2)cc1OCCc1ccc2ccccc2c1`
> 30 µM

* * *

- system-name: Cytochrome P450 2C19 (Homo sapiens, UniProt P33261)
- Sequence (P33261 whole entry): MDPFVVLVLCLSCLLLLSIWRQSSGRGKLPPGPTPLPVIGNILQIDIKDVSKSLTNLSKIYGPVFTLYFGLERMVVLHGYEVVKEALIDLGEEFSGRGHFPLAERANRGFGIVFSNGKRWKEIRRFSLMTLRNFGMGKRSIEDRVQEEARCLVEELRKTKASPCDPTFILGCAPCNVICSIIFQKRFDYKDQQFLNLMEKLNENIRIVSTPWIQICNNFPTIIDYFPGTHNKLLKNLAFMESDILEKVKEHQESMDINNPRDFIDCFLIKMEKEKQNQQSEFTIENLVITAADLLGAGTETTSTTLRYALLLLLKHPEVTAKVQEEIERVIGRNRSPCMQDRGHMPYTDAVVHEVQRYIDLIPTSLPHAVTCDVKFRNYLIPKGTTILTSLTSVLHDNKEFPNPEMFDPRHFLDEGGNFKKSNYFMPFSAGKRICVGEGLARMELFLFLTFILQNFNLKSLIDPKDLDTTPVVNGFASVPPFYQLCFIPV
reported-endpoint: IC50 (µM)
Provide the reading as a plain figure in µM.

Could you please provide reported IC50 for `O=C(O)/C=C/c1ccc(Cn2cccn2)cc1OCCc1ccc2ccccc2c1` ? Thanks!
30
